experimental system: T1, ExbD periplasmic domain (E. coli ExbD residues 59-141) (E. coli, UniProt P0ABV2 59-141)
T1 construct: single glycine residue left upstream of Arg-59 after proteolytic removal of the SUMO tag; ExbD, E. coli, periplasmic domain, residues 59-141 (begins at Arg-59); codon-optimised synthetic gene in pETHSUL; the methods and legends say 59-141; Two copies of this domain hold one D-box peptide in the crystals and by ITC; also called ExbD_(59-141); ExbD C-terminal periplasmic domain; source: E. coli …
T1 sequence: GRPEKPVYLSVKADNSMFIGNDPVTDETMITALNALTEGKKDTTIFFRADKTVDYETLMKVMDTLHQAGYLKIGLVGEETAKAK
test protocol: ITC; D-box peptide (1 mM) injected into 100 uM ExbD protein at 288 K; 10 mM MES pH 5.3, 60 mM NaCl; two-state binding model
applied conditions: both partners purified
quantity measured: Kd (µM)
Give just the numeric value; µM need not be written.

Task: # get_value(readout='Kd', item= QPISVTMVTPAD (TonB, E. coli, residues 43-54, holds the D-box motif; The description of the crystal structure numbers the peptide Gln-55 to Thr-63, that is 12 higher than the TonB numbers; also called TonB D-box peptide; source: synthetic peptide (VWR Scientific)) [D-box peptide (residues 43 to 54 of E. coli TonB)] )
Output: 19

The values you see were collected from paper PMC10907165.
